Taken from paper PMC12298270.

- run description: Plasma levels of IVA, TEZ and ELX by LC-MS/MS in pediatric cystic fibrosis patients at steady state on Kaftrio
- Type: in vivo, human
- experimental setup: both sexes, human, plasma, oral, n = 25 pediatric CF patients; C12h estimated as C4h*e^−β(t12−t4); read-out: Measured AUC0–12h, Median
readout name: AUC(0-t) (ng·h/mL)
Could you give me the number in ng·h/mL? Just the number is fine.

Qu. Need AUC(0-t), item `CC(C)(C)c1cc(C(C)(C)C)c(NC(=O)c2c[nH]c3ccccc3c2=O)cc1O`
Ans. 11400

---

- run description: Plasma levels of IVA, TEZ and ELX by LC-MS/MS in pediatric cystic fibrosis patients at steady state on Kaftrio
- Type: in vivo, human
- experimental setup: both sexes, human, plasma, oral, n = 25 pediatric CF patients, steady state, 4 h after morning Kaftrio dose; read-out: Plasma concentration T4 (Cmax), 75th Percentile
- Description: The clinical performance of our validated method was tested on n = 25 samples from pediatric patients affected by cystic fibrosis. […] For IVA, the plasma concentration at 12 h (T12) was obtained by using C4h*e^−β(t12−t4), and the AUC0–12h was calculated to assess the systemic exposure within the interval between two doses (Table 5). […] Elexacaftor/tezacaftor/ivacaftor plasma levels were determined using high-performance liquid chromatography (HPLC) coupled to mass spectrometry (MS/MS). […]
readout name: Cmax at 4 h (ng/mL)
Could you give me the number in ng/mL? Just the number is fine.

CC(C)(C)c1cc(C(C)(C)C)c(NC(=O)c2c[nH]c3ccccc3c2=O)cc1O ... 2430

Qu. Need Cmax at 4 h, item `Cc1nn(C)cc1S(=O)(=O)NC(=O)c1ccc(-n2ccc(OCC(C)(C)C(F)(F)F)n2)nc1N1C[C@@H](C)CC1(C)C`
Ans. 24100

Qu. Need Cmax at 4 h, item `CC(C)(CO)c1cc2cc(NC(=O)C3(c4ccc5c(c4)OC(F)(F)O5)CC3)c(F)cc2n1C[C@@H](O)CO`
Ans. 6320
